Data origin: the Human Domainome abundance scans (Beltran et al. 2025)

B1: Zinc finger homeobox protein 3, residues 2643 to 2698; numbered along this chain, Q15911 (parent)
chain: RLRTTITPEQLEILYQKYLLDSNPTRKMLDHIAHEVGLKKRVVQVWFQNTRARERK

Variants of: B1
Experiment: abundance fitness (aPCA) (normalised: wild type 0, dead -1); higher = more abundant; growth selection in yeast, the domain comes from the species named
Settings: Homo sapiens
Record form. Attribute: abundance fitness. Fill in for each entry.
Could you keep your reply to the number by itself?

stdin: Please report the recorded abundance fitness for V36R .
stdout: -0.82

stdin: Input R1S
stdout: 0.131

stdin: Quick one: I6A
stdout: -0.298

stdin: Moving on to the next variant: R3I
stdout: 0.19

stdin: Consider next the variant R3D in the same way.
stdout: 0.543

stdin: Would you kindly repeat that for L19F ?
stdout: -0.36

stdin: Now this one: A33E
stdout: -0.759

stdin: Another: L20G
stdout: -0.049

stdin: D30M ?
stdout: -0.314

stdin: Please give the result for H31C too.
stdout: 0.096

stdin: Similarly, V45S ?
stdout: -0.359

stdin: And what about the variant E12W ?
stdout: -0.749

stdin: Cool, now Y18P
stdout: -0.847

stdin: Record: T7C
stdout: -0.244

stdin: Also G37V , if possible.
stdout: -0.812

stdin: Follow-up item: E54Q
stdout: -0.495

stdin: // query: L2R
stdout: -0.262

stdin: What about this variant? L11Q
stdout: -0.133

stdin: Next up: K56H
stdout: -0.17

stdin: Try the variant T5Q
stdout: 0.17

stdin: Can you handle T25E next?
stdout: -0.081

stdin: Another variant to look at: I6S
stdout: -0.648

stdin: Now give it for A52M too.
stdout: -0.138

stdin: What do we get for H31K ?
stdout: -0.166

stdin: Next record, please: K27R
stdout: -0.444

stdin: Now this one: V45G
stdout: -0.213

stdin: // next record P8T
stdout: -0.116

stdin: Again, but for I6Q
stdout: -0.705

stdin: Moving on to the next variant: V43N
stdout: -0.64

stdin: Would you mind doing H34E as well?
stdout: 0.099

stdin: Thanks! And N23T ?
stdout: -0.379

stdin: Same question, R51K this time
stdout: 0.112

stdin: Same again, this time with R53F
stdout: 0.239

stdin: One more variant: I32H
stdout: -0.527

stdin: R51W ?
stdout: -0.135

stdin: Now consider S22I and answer again.
stdout: -0.589

stdin: Moving on to the next variant: K56M
stdout: -0.204

stdin: Another: I6M
stdout: 0.068

stdin: Proceed to I13G
stdout: -0.24

stdin: Would you kindly repeat that for I32C ?
stdout: -0.749

stdin: And what about the variant K39H ?
stdout: -0.392
